assay: Non-competitive inhibition of Saccharomyces cerevisiae alpha-glucosidase type 1 using p-nitro-phenyl-alpha-D-glucopyranoside as substrate preincubated for 10 mins followed by substrate addition measured after 5 mins every 10 secs by Lineweaver-Burk plot analysis
Reported Ki values for a set of compounds

Smiles input	Ki, µM
O=c1[nH]c(-c2ccc(Br)cc2)nc2ccccc12	10.6
O=c1[nH]c(-c2ccc(Cl)cc2)nc2ccccc12	9.1

----------
Reported pIC50 values for a set of compounds
assay: Inhibition of Saccharomyces cerevisiae alpha-glucosidase type 1 using p-nitro-phenyl-alpha-D-glucopyranoside as substrate preincubated for 10 mins followed by substrate addition measured after 5 mins every 10 secs
pIC50: −log10 of the molar value.

Compound	Limit sign	pIC50
O=c1[nH]c(-c2ccc(Cl)cc2)nc2ccccc12	=	4.90
O=c1[nH]c(-c2ccc(Br)cc2)nc2ccccc12	=	4.81
C[C@H]1O[C@H](O[C@H]2[C@H](O)[C@@H](O)[C@@H](O[C@H]3[C@H](O)[C@@H](O)C(O)O[C@@H]3CO)O[C@@H]2CO)[C@H](O)[C@@H](O)[C@@H]1N[C@H]1C=C(CO)[C@@H](O)[C@H](O)[C@H]1O (some centres undefined)	=	3.32
Oc1nc(-c2ccc(F)cc2)nc2ccccc12	<	4.24

Origin of values: ChEMBL document CHEMBL3877317
